biological target: A*6802 (Homo sapiens, UniProt P04439, A269V/D140Y/D185E/E176V/E277Q/E87N/F33Y/G231S/I121R/I166T/I218V/L180W/L300P/L318F/N151K/P208A/P217A/Q86R/R138H/R169H/S129P/T345S/V36M); assay: biochemical; format: binding
No end group written: not given here.
Recorded pIC50 values for a group of sequences are listed next.
# pIC50 is unitless: minus log10 of the molar concentration; print number only

Consider the following illustrative entries.
               biopolymer_sequence  parameter_measured  recorded_number
0      VAWDSVYYV [Peptide 1593.57]               pIC50             7.32
1   ILNDTGFYTL [Peptide 9013.0150]               pIC50             4.95
2  LTIESTPFNVV [Peptide 9013.0267]               pIC50             6.91

Turning to the following sequence.
Field pIC50 (entry VLAEAMSAA [Peptide 1516.11] ) reads 6.32

Reference for the values: patent US9340577B2
